Target: T1, mouse common cytokine receptor γ-chain (IL-2Rγ) (mouse, UniProt P34902 23-263, limits assumed)
T1 construct: Recombinant mouse IL-2Rγ protein; also called mo IL-2R; mouse IL-2R gamma
T1 sequence (looked up): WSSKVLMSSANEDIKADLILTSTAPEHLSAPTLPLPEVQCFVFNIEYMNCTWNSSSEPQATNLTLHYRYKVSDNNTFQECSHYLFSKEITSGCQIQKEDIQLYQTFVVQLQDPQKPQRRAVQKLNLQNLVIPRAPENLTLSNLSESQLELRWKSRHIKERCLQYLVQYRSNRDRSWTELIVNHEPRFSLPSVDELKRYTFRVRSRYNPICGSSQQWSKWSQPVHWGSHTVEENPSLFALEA
Assay: P.E. off-rate SPR
readout-name: koff (s⁻¹)
State the answer as a number, implicitly in s⁻¹.

Give the value of koff reported for the following: FJ1427_P035MP07H01 (VHH, tested as periplasmic extract; also called Clone nr) VHH: QVQLVESGGGLVQAGGSLRLFCATSGRTLSRYAMGWFRQAPGREREFVACDSWGGDTFYADSVKGRFTFSRDSAKNTVYLQMNSLQPEDTAVYYCAAAPTSFATTAYSSSNSYAYWGQGTQVTVSS 0.0274

Give the value of koff reported for the following: FJ1427_P035MP07E08 (VHH, tested as periplasmic extract; also called Clone nr) VHH: QVQLVESGGGLVQAGGSLRLSCAASGRTLSRYAMGWFRQAPGKEREFVAADSWGGDTYYDDSVEGRFTFSRDIAKNAVYLQMNSLQPEDTAVYYCAAAPTSFATTAYSSSNSYAYWGQGTQVTVSS 0.13

Give the value of koff reported for the following: FJ1427_P035MP07C01 (VHH, tested as periplasmic extract; also called Clone nr) VHH: QVQLVESGGGLVQAGDSLRLSCVASGRTLSRCAMGWFRKAPGKEREYVAISSWGGDTFYEDSVEGRFTFSRDNAKNTVYLQMNSLRPEDTAVYYCAAAPTSFATTAYSSSNSYAYWGQGTQVTVSS 0.00694

Give the value of koff reported for the following: FJ1427_P035MP07C03 (VHH, tested as periplasmic extract; also called Clone nr) VHH: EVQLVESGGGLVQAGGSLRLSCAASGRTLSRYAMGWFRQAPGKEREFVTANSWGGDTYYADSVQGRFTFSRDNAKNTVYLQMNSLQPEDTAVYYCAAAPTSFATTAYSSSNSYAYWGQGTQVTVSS 0.114

Give the value of koff reported for the following: FJ1427_P035MP07E06 (VHH, tested as periplasmic extract; also called Clone nr) VHH: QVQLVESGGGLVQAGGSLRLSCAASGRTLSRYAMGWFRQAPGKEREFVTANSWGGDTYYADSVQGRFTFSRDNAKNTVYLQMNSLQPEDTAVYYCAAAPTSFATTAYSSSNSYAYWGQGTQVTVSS 0.102

Give the value of koff reported for the following: FJ1427_P035MP07A05 (VHH, tested as periplasmic extract; also called Clone nr) VHH: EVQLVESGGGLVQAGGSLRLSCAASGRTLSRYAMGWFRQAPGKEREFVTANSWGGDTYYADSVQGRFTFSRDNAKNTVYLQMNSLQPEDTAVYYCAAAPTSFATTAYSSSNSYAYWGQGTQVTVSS 0.127

Give the value of koff reported for the following: FJ1427_P035MP07B07 (VHH, tested as periplasmic extract; also called Clone nr; 626) VHH: QVQLVESGGGLVQAGGSLRLSCAASGRSLSRYAMGWFRQAPGKEREFVAAISWGGDSFYTDSVEGRFTFSRDNAKNAVYLEMNDLQPEDTAVYYCAAAPTSFPTTAYSSSNSYSYWGRGTQVTVSS 0.00347
